Data provenance: patent US8383581B2

// reported cAMP released with respect to control, 100 nM peptide, UMR-106 cells per item
Target: T1, rat PTH-1R (rat PTHR endogenously expressed on UMR-106 rat osteosarcoma cells) (rat, UniProt P25961 27-591)
T1 sequence (looked up): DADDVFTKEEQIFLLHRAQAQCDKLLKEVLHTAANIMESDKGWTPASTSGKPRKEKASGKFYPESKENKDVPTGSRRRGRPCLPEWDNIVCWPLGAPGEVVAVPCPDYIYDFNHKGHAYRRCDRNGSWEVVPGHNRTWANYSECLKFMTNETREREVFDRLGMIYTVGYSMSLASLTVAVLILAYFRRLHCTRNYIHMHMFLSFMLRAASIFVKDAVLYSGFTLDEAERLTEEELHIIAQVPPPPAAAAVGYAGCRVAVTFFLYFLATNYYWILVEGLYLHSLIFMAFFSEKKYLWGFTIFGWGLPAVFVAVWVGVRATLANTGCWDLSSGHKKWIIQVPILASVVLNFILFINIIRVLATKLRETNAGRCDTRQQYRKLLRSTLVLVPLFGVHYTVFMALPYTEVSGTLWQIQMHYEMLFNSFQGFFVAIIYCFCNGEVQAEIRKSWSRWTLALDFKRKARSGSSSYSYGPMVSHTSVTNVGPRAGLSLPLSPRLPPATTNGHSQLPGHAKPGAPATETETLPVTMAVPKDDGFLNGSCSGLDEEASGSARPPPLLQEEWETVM
Assay: cell-based or functional assay
Where no end group is shown, it is not given here. [ ]: non-standard residue; d: D form. Bip(2'-Et-4'-OMe) = CCc1cc(OC)ccc1-c1ccc(C[C@H](N)C(=O)O)cc1; Arg(NO2) = N=C(NCCC[C@H](N)C(=O)O)N[N+](=O)[O-]; αMePhe(2,6-F2) = C[C@](N)(Cc1c(F)cccc1F)C(=O)O; αMePhe(2-F) = C[C@](N)(Cc1ccccc1F)C(=O)O; αMeW = C[C@](N)(Cc1c[nH]c2ccccc12)C(=O)O; hhPhe = N[C@@H](CCCc1ccccc1)C(=O)O; hArg = N=C(N)NCCCC[C@H](N)C(=O)O; αMeM = CSCC[C@](C)(N)C(=O)O; αMeP = C[C@@]1(C(=O)O)CCCN1; Nle = CCCC[C@H](N)C(=O)O; Aib = CC(C)(N)C(=O)O
quantity.name: cAMP released with respect to control, 100 nM peptide, UMR-106 cells

[Aib]V[Aib]EIQL[αMeM]HQ[hArg]A[hArg][αMeW][hhPhe] [Seq. ID. 942]	69 percent of control
[Aib]V[Aib]EIQ[αMePhe(2-F)][Nle]HQ[αMePhe(2,6-F2)]A[Arg(NO2)][αMePhe(2-F)] [Seq. ID. 521]	69 percent of control
[Aib]V[Aib]EIQ[αMePhe(2,6-F2)][Nle]HQ[hArg][Aib][αMePhe(2,6-F2)][αMePhe(2-F)] [Seq. ID. 212]	116 percent of control
[Aib]V[Aib]EIQ[αMePhe(2-F)][Nle]HQ[hArg][αMeP]K[αMePhe(2,6-F2)] [Seq. ID. 91]	110 percent of control
[Aib]V[Aib]EIQL[Nle]HQ[hArg]AK[Bip(2'-Et-4'-OMe)] [Seq. ID. 647]	126 percent of control
